system: SK-OV-3 ovarian; assay: NCI tumour cell line growth inhibition, 48 h; in the data active means GI50 below about 0.43 µM; inactive means the rest
Answer with one of the outcomes active, inactive

-- ask Lab log entry: `COc1ccc(Cn2c(Cl)c(/C=C3/C(=O)Nc4ccccc43)c3cc(OC)c(C)cc32)cc1` — outcome as called in the assay?
-- reply inactive

-- ask Hello, I am checking results. What call was entered for `CSc1ccc(/C=C2\C=C(CC(=O)NCc3ccc(C(=O)c4ccccc4)cc3)c3cc(F)ccc32)cc1` ?
-- reply active

-- ask So what was the verdict on CCOc1c(Cl)cc(CNC(C)C(O)c2ccccc2)cc1OC (stereo not given) in this test?
-- reply inactive

-- ask Given CCC(c1cccc(O)c1)C(CC)c1cccc(O)c1 (stereo not given) , state the outcome it received in this test.
-- reply inactive

-- ask Fill in: this test's call for `COC(=O)CCCCCN=Cc1c(O)c(O)c(C(C)C)c2cc(C)c(-c3c(C)cc4c(C(C)C)c(O)c(O)c(C=NCCCCCC(=O)OC)c4c3O)c(O)c12` is ___
-- reply inactive
